- Assayed target: T1, NativeRPtag(large)_with_Tags_and_Cys (Thermoanaerobacter tengcongensis)
- T1 construct: Unlabeled in anisotropy assays; coupled through the engineered N-terminal Cys to SulfoLink agarose or maleimide plates in column, pull-down and ELISA assays
- T1 chain: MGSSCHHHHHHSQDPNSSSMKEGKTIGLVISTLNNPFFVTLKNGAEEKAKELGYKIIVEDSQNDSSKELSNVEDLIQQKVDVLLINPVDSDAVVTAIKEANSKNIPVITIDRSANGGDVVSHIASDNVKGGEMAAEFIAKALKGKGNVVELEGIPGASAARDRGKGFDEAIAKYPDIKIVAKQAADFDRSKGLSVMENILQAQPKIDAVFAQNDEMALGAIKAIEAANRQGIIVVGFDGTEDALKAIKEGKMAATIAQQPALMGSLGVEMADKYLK
- Experiment: fluorescence anisotropy; Tween20 (2%)
No end group written: not given here. *: point of attachment. RhodamineB = CCN(CC)c1ccc2c(-c3ccccc3C(=O)*)c3ccc(=[N+](CC)CC)cc-3oc2c1
Collected pKd values appear next to each entry.
When answering, recall that pKd equals minus log10 of the concentration in mol/L, and write that number alone.

1) RhodamineB-KIANFIPAELKLITKANVQ (also: also used unlabeled as competitor, Rhodamine labeled in the Kd assays; also called RPtag(small) (tight)) [RPtag(small) Nd2, p5a, e18a] = 8.33

Ask | Identify measured pKd corresponding to RhodamineB-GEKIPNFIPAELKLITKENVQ (Synthetic peptide) [native RPtag(small)]
Reply | 9.31
